Parameter viability at 28.5 h, 10 µM: see the listing below.
ASSAY_TEXT: in vitro
CONDITION_NOTES: human, hela cells, % viability
Provide only the numeric value, understood in %.

Below, each entry is followed by its recorded viability at 28.5 h, 10 µM result.
{"MOLECULE": "Clc1ccc(-c2c[nH]cn2)cc1", "MEASURE": "viability at 28.5 h, 10 µM", "UNIT_STRING": "%", "TEST_RESULT": 111}
{"MOLECULE": "O=C(CSc1nnc2scc(-c3ccccc3)n12)Nc1nsc(-c2ccccc2)n1", "MEASURE": "viability at 28.5 h, 10 µM", "UNIT_STRING": "%", "TEST_RESULT": 103}
{"MOLECULE": "c1ccc(Nc2nc3nonc3n3cnnc23)cc1", "MEASURE": "viability at 28.5 h, 10 µM", "UNIT_STRING": "%", "TEST_RESULT": 105}
{"MOLECULE": "CC1CN(S(=O)(=O)c2ccc(NC(=O)c3nc(SCc4ccccc4)ncc3Cl)cc2)CC(C)O1 (stereo not drawn)", "MEASURE": "viability at 28.5 h, 10 µM", "UNIT_STRING": "%", "TEST_RESULT": 89.3}
{"MOLECULE": "Oc1ccc(/N=C/C=C/c2ccc(Cl)cc2Cl)cc1-c1nc2ccccc2s1", "MEASURE": "viability at 28.5 h, 10 µM", "UNIT_STRING": "%", "TEST_RESULT": 107}

Q: Please report the recorded viability at 28.5 h, 10 µM for `COc1ccc(S(=O)(=O)Nc2ccc(C)cc2)cc1C(=O)Nc1ccc(C)cc1` .
A: 94.7
